Here, each record is paired with measured normalized maximum binding nm shift data.
- testedSystem: T1, Human VSIG4-L-Fc (human)
- T1 construct: also called hVSIG4-L-Fc; hVSIG4-L
- T1 sequence (chain, as listed by the source limits assumed): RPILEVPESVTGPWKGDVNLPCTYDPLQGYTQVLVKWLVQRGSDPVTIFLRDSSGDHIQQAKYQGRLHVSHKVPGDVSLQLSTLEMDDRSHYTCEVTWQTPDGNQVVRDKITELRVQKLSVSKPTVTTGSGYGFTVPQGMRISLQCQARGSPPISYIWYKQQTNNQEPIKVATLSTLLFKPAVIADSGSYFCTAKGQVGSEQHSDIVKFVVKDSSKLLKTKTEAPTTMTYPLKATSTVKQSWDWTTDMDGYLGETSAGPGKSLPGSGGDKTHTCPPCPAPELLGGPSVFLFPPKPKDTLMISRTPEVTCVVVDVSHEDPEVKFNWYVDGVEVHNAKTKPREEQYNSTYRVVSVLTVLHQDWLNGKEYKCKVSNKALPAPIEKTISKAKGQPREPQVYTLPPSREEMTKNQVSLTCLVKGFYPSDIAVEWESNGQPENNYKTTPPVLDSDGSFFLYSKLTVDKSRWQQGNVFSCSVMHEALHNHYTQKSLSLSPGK
- methodDescription: BLI binning on hVSIG4-L-Fc, competitor 12A08 first;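 further: normalized to binding of second antibody without first competitor antibody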
Write the numeric value and append its unit.

[[record]]
binder = "12A12 mouse/human chimeric IgG4 (S228P) kappa (antibody, V domains shown) VH: QVQMKQSGAELAKPGASVKMSCKASGYTFTNYWMHWVKQRPGQGLEWIGYINPSTGYTDYNQNFKDRATLTADKSSSTAYMQLSSLTSEDSAVYYCIRGSDYYGRDYWGQGTTLTVSS VL: DIQMTQTTSSLSASLGDRVTISCRASQDISNYLNWYQQKPDGTLKLLIYYTSRLHSGVPSRFSGSGSGTDYSLTISNLEQEDIATYFCRQGNTLPWTFGGGTKLEIKR"
readoutlabel = "normalized maximum binding nm shift"
valueobserved = "0.86 normalized"

[[record]]
binder = "16E03 mouse/human chimeric IgG4 (S228P) kappa (antibody, V domains shown) VH: QVQLQQSGAELARPGASVKMSCKASGYTFTSYTMHWIKQRPGQGLEWIGYINPSSGHTYYNQKFKDKATLTPDKSSSTAYMQLTSLTSEDSAVYYCARRIPTAYAMDYWGQGTSVTVSS VL: EIQMTQSHKFMSTSVGDRVSITCKASQDVGTAVAWYQQKPGQSPKLLIYWASTRHTGVPDRFTGSGSGTDFTLTISNVQSEDLADYFCQQYSSYPLTFGAGTKLELKR"
readoutlabel = "normalized maximum binding nm shift"
valueobserved = "0.13 normalized"

[[record]]
binder = "13H11 mouse/human chimeric IgG4 (S228P) kappa (antibody, V domains shown) VH: QIQLVQSGPELKKPGETVKISCKASGYTFENFGMNWVKQAPGKGLKWMGWINTYTGEATYADDFKGRFAFSLETSASTAYLQINNLKNEDTATYFCARDGGFRHFDVWGAGTTVTVSS VL: ETTVTQSPASLSVATGEKVTIRCITSTDIDDDMNWYQQKPGEPPKLLISEGNTLRPGVPSRFSSSGYGTDFVFTIENMLSEDVADYYCLQSDNLPLTFGAGTKLELKR"
readoutlabel = "normalized maximum binding nm shift"
valueobserved = "0.7 normalized"

[[record]]
binder = "12A08 mouse/human chimeric IgG4 (S228P) kappa (antibody, V domains shown) VH: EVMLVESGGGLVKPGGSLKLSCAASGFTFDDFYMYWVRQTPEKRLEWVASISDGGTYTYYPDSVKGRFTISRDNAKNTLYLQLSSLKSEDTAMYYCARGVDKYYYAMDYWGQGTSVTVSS VL: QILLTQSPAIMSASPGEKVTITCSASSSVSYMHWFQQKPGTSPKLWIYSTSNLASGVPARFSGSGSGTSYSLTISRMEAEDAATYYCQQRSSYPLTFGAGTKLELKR"
readoutlabel = "normalized maximum binding nm shift"
valueobserved = "0.1 normalized"

[[record]]
binder = "16E10 mouse/human chimeric IgG4 (S228P) kappa (antibody, V domains shown) VH: QVQLQQSGAELVRPGTSVKISCKASGYTFTNYWLGWVKQRPGHGLEWIGDIYPGGGYTNYNEKFKGKATLTADTSSSTAYMQLSSLTSEDSAVYFCAKFYYYGSSYYFDSWGQGTTLTVSS VL: DIVLTQSPSSLSVSAGEKVTLSCKSSQSLLNSGNQENYLAWYQQKPGQPPKLLIYGASTRESGVPDRFTGSGSGTDFTLTISSVQAEDLAVYYCQNDHSYPLTFGAGTKLELKR"
readoutlabel = "normalized maximum binding nm shift"
valueobserved = "0 normalized"


Exam item: I am curious: what normalized maximum binding nm shift value has been reported for 15C03 mouse/human chimeric IgG4 (S228P) kappa (antibody, V domains shown) VH: EVKLLESGPGLVKPSQSLSLTCTVTGYSITSDYAWNWIRQFPGNKLEWMGYISYSGSTRYNPSLKSRISITRDTSNNQFFLQLNSVTTEDTATYYCARSGYAAMDYWGQGTSVTVSS VL: ENVLTQSPAIMSASPGEKVTMTCRASSSVSSSYLHWYQQKSGASPKLWIYSTSNLASGVPARFSGSGSGTSYSLTISSVEAEDAATYYCQQYSGYPLTFGSGTKLEIKR ?
Marked response: 0.8 normalized

Exam item: Now consider 14C05 mouse/human chimeric IgG4 (S228P) kappa (antibody, V domains shown) VH: EVMLVESGPELKKPGETVKISCKASGYTFTNYGMNWVKQAPGKGLKWMGSINTYTGEATYADDFKGRFAFSLETSANTAYLQIDNLKNEDTATYFCARGDYYGRGTWFAYWGQGTLVTVSA VL: ETTVTQSHKFMSTSVGDRVSITCKASQDVSTAVAWYQQKPGQSPKLLIYSASYRYPGVPDRFTGSGSGTDFTFTISSVQAEDLAVYYCQQDYSSPWTFGGGTKLEIKR .
Marked response: 0.75 normalized

The origin of these recorded values is patent US20230348603A1.
